Test system: Mus musculus
Test: Phototoxicity in Swiss albino mouse assessed as erythema incidence at 140 mg/kg, po after 24 hrs of irradiation
Format: organism-based
Design: dose 140 mg/kg, route oral
Conditions: in vivo
MEASUREMENT TYPE: Activity

1) COc1c(N2CCN(Cc3ccc4c(c3)OCO4)CC2)c(F)c([N+](=O)[O-])c2c(=O)c(C(=O)O)cn(C3CC3)c12 | Non-toxic
2) CCn1cc(C(=O)O)c(=O)c2cc(F)c(N3CCNC(C)C3)c(F)c21 (stereo unspecified) | Toxic
3) COc1ccc(CC2C3=C(CCCC3)CCN2c2c(F)c([N+](=O)[O-])c3c(=O)c(C(=O)O)cn(C4CC4)c3c2OC)cc1 (stereo unspecified) | Non-toxic
4) CCN(CC)C(=O)C1CCCN(c2c(F)cc3c(=O)c(C(=O)O)cn(C4CC4)c3c2OC)C1 (stereo unspecified) | Non-toxic
5) COc1c(N2CCN(C(=O)C3COc4ccccc4O3)CC2)c(F)cc2c(=O)c(C(=O)O)cn(C3CC3)c12 (stereo unspecified) | Non-toxic

Now look at this one.
Endpoint output: Activity of COc1c(N2CC(C)OC(C)C2)c(F)c([N+](=O)[O-])c2c(=O)c(C(=O)O)cn(C3CC3)c12 (stereo unspecified) . Value?
Non-toxic

----------
Biological target: DNA gyrase subunit B (Mycobacterium smegmatis (strain ATCC 700084 / mc(2)155), UniProt A0QNE0)
Sequence (A0QNE0 whole entry): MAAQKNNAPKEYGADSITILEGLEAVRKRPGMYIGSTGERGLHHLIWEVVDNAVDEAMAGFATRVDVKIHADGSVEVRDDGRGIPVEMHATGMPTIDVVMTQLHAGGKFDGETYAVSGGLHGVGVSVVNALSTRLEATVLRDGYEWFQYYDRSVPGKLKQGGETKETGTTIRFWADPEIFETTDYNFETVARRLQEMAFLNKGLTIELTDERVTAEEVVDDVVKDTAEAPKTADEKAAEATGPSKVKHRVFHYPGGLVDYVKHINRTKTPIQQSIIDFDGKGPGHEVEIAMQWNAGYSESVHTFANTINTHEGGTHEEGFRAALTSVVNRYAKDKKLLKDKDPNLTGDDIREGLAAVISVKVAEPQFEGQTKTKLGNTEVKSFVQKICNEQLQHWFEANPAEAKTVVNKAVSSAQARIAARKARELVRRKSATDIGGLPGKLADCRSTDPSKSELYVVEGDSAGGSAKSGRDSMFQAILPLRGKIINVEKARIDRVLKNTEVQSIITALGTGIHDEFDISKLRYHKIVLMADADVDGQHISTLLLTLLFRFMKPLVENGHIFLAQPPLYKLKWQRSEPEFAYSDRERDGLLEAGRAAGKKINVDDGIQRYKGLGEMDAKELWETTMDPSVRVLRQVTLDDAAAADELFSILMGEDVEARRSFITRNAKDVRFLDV
Assay: Inhibition of Mycobacterium smegmatis MC2 DNA gyrase GyrB ATPase supercoiling activity
MEASUREMENT TYPE: pIC50
// pIC50: -log10(molar conc.)

1) COc1ccc(CC2C3=C(CCCC3)CCN2c2c(F)c([N+](=O)[O-])c3c(=O)c(C(=O)O)cn(C4CC4)c3c2OC)cc1 (stereo not given) | 4.28
2) COc1c(N2CC(C)OC(C)C2)c(F)c([N+](=O)[O-])c2c(=O)c(C(=O)O)cn(C3CC3)c12 (stereo not given) | 3.94
3) COc1c(N2CCN(C(=O)C3COc4ccccc4O3)CC2)c(F)cc2c(=O)c(C(=O)O)cn(C3CC3)c12 (stereo not given) | 4.24

Endpoint output: pIC50 of COc1ccc(CC2C3=C(CCCC3)CCN2c2c(F)cc3c(=O)c(C(=O)O)cn(C4CC4)c3c2OC)cc1 (stereo not given) . Value?
4.12

----------
Test system: Mus musculus
Test: Phototoxicity in Swiss albino mouse assessed as ear thickness at 140 mg/kg, po after 4 hrs of irradiation
Type: organism-based
Set-up: dose 140 mg/kg, route oral
Details: in vivo
Response key: True means Activity >= 0.3 mm; False means Activity < 0.3 mm.

1. CCN(CC)C(=O)C1CCCN(c2c(F)cc3c(=O)c(C(=O)O)cn(C4CC4)c3c2OC)C1 (stereo unspecified) | True
2. CCn1cc(C(=O)O)c(=O)c2cc(F)c(N3CCNC(C)C3)c(F)c21 (stereo unspecified) | True
3. COc1ccc(CC2C3=C(CCCC3)CCN2c2c(F)c([N+](=O)[O-])c3c(=O)c(C(=O)O)cn(C4CC4)c3c2OC)cc1 (stereo unspecified) | True
4. COc1c(N2CCN(C(=O)C3COc4ccccc4O3)CC2)c(F)cc2c(=O)c(C(=O)O)cn(C3CC3)c12 (stereo unspecified) | True
5. COc1c(N2CCN(Cc3ccc4c(c3)OCO4)CC2)c(F)c([N+](=O)[O-])c2c(=O)c(C(=O)O)cn(C3CC3)c12 | False

Determine whether measured Activity meets or exceeds 0.3 mm for COc1c(N2CC(C)OC(C)C2)c(F)c([N+](=O)[O-])c2c(=O)c(C(=O)O)cn(C3CC3)c12 (stereo unspecified)
False
